Tested on: TGW;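 also: growth inhibition of human TGW cells, read out with a cell viability assay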
assay text: cells
Assay type: functional, cell-based
condition set: Homo sapiens
Description: SANGER: Inhibition of human TGW cell growth in a cell viability assay.
pIC50: −log10 of the molar value.
Catalogue of pIC50 readings, one per entry.
quantity kind: pIC50

{"compound": "CC(=O)c1c(C)c2cnc(Nc3ccc(N4CCNCC4)cn3)nc2n(C2CCCC2)c1=O", "quantity kind": "pIC50", "meas value": 5.95}
{"compound": "C/C(O)=C(\\C#N)C(=O)Nc1cc(Br)ccc1Br", "quantity kind": "pIC50", "meas value": "< 4.80"}
{"compound": "CCn1c(-c2nonc2N)nc2cnc(Oc3cccc(NC(=O)c4ccc(OCCN5CCOCC5)cc4)c3)cc21 [GSK-269962A]", "quantity kind": "pIC50", "meas value": "< 5.60"}
{"compound": "Cc1ccc(NC(=O)c2cccc(C(C)(C)C#N)c2)cc1Nc1ccc2ncn(C)c(=O)c2c1", "quantity kind": "pIC50", "meas value": "< 5.40"}
{"compound": "N#C/C(=C1/Nc2ccccc2S1)c1ccnc(NCCc2cccnc2)n1", "quantity kind": "pIC50", "meas value": "< 5.10"}
{"compound": "O=c1[nH]c2ccccc2n1C1CCN(Cc2ccc(-c3nc4cc5[nH]cnc5cc4nc3-c3ccccc3)cc2)CC1", "quantity kind": "pIC50", "meas value": "< 5.59"}
{"compound": "CO[C@@]12[C@H](COC(N)=O)C3=C(C(=O)C(C)=C(N)C3=O)N1C[C@@H]1N[C@@H]12", "quantity kind": "pIC50", "meas value": 5.56}
{"compound": "O=c1cc(N2CCOCC2)oc2c(-c3cccc4c3sc3ccccc34)cccc12", "quantity kind": "pIC50", "meas value": "< 5.70"}

----------
Catalogue of IC50 readings, one per entry.
Tested on: KYSE-270;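 also: cell growth inhibition measured with a viability assay in the human KYSE-270 line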
assay text: cells
Type: functional, cell-based
condition set: Homo sapiens
Description: SANGER: Inhibition of human KYSE-270 cell growth in a cell viability assay.
quantity kind: IC50

{"input smiles": "C/C(O)=C(\\C#N)C(=O)Nc1cc(Br)ccc1Br", "quantity kind": "IC50", "meas value": "> 16000 nM"}
{"input smiles": "C[C@]1(c2nc3c(C(N)=O)cccc3[nH]2)CCCN1", "quantity kind": "IC50", "meas value": "> 5000 nM"}
{"input smiles": "N#C/C(=C1/Nc2ccccc2S1)c1ccnc(NCCc2cccnc2)n1", "quantity kind": "IC50", "meas value": "5970 nM"}
{"input smiles": "CC[C@@]1(O)C(=O)OCc2c1cc1n(c2=O)Cc2cc3ccccc3nc2-1", "quantity kind": "IC50", "meas value": "5.22 nM"}
{"input smiles": "C[C@]12O[C@H](C[C@]1(O)CO)n1c3ccccc3c3c4c(c5c6ccccc6n2c5c31)CNC4=O", "quantity kind": "IC50", "meas value": "392 nM"}

----------
System: LP-1;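 also: growth inhibition of human LP-1 cells, with the read-out taken from a cell viability assay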
assay text: cells
Type: functional, cell-based
condition set: Homo sapiens
Description: SANGER: Inhibition of human LP-1 cell growth in a cell viability assay.
pIC50: −log10 of the molar value.

{"compound": "Cc1[nH]c(/C=C2\\C(=O)Nc3ccc(S(=O)(=O)Cc4c(Cl)cccc4Cl)cc32)c(C)c1C(=O)N1CCC[C@@H]1CN1CCCC1 [PHA-665752]", "pIC50": "< 5.70"}
{"compound": "O=c1[nH]c2ccccc2n1C1CCN(Cc2ccc(-c3nc4cc5[nH]cnc5cc4nc3-c3ccccc3)cc2)CC1", "pIC50": "< 5.59"}
{"compound": "CC(O)(CS(=O)(=O)c1ccc(F)cc1)C(=O)Nc1ccc(C#N)c(C(F)(F)F)c1 (stereo not drawn) [BICALUTAMIDE]", "pIC50": "< 5.99"}
{"compound": "Cc1nc(Nc2ncc(C(=O)Nc3c(C)cccc3Cl)s2)cc(N2CCN(CCO)CC2)n1 [DASATINIB]", "pIC50": "< 5.89"}
{"compound": "N#C/C(=C1/Nc2ccccc2S1)c1ccnc(NCCc2cccnc2)n1", "pIC50": "< 5.10"}
{"compound": "COc1cc(C)c(Sc2cnc(NC(=O)c3ccc(CNC(C)C(C)(C)C)cc3)s2)cc1C(=O)N1CCN(C(C)=O)CC1 (stereo not drawn)", "pIC50": "< 4.99"}
{"compound": "CCn1c(-c2nonc2N)nc2cnc(Oc3cccc(NC(=O)c4ccc(OCCN5CCOCC5)cc4)c3)cc21 [GSK-269962A]", "pIC50": "< 5.60"}
{"compound": "CCNc1cc(N[C@H]2CC[C@@H](O)CC2)nc(Nc2ccc3c(ccn3Cc3ccccc3)c2)n1", "pIC50": "< 5.29"}
